Target: Bile acid receptor (Homo sapiens, UniProt Q96RI1)
Sequence (Q96RI1 whole entry): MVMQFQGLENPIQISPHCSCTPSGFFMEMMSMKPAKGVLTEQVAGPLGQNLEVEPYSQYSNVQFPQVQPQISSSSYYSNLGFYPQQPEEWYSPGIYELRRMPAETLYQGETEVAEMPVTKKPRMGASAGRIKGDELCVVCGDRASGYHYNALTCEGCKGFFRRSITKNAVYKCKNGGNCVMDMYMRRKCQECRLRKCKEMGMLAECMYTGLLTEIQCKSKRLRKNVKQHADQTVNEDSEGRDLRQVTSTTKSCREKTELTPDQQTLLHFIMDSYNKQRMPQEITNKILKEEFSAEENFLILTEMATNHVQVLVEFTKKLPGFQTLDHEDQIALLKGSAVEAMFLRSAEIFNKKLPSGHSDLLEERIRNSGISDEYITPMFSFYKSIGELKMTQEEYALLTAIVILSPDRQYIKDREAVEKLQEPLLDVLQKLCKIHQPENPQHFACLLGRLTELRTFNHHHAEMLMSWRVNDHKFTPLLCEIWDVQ
Test: Antagonist activity at human FXR expressed in Hep3B cells assessed as inhibition of CDCA-induced FXR response element driven luciferase activity after 24 hrs
Type: cell-based
pIC50: −log10 of the molar value.
RESULT TYPE: pIC50

In the examples that follow, each entry is paired with its recorded pIC50.
| MOLECULE SMILES | SYSTEM UNDER TEST | RESULT TYPE | OBS VALUE |
| --- | --- | --- | --- |
| CC(C)C(=O)N1CCC(C[C@@H](c2nc3ccc(Cl)cc3n2C)N2C(=O)CN(c3ccc(Oc4ccccc4)cc3)C2=O)CC1 | Bile acid receptor (Homo sapiens, UniProt Q96RI1) | pIC50 | 10.30 |
| CC(=O)N1CCC(C[C@@H](c2nc3cc(F)ccc3n2C)N2C(=O)CN(c3ccc(Oc4ccccc4)cc3)C2=O)CC1 | Bile acid receptor (Homo sapiens, UniProt Q96RI1) | pIC50 | 9.00 |

[I] CC(=O)N1CCC(C[C@@H](c2nc3ccc(C)cc3n2C)N2C(=O)CN(c3ccc(Oc4ccccc4)cc3)C2=O)CC1
[II] Cc1ccc2nc([C@H](CC3CCN(C(=O)C4CCCC4)CC3)N3C(=O)CN(c4ccc(Oc5ccccc5)cc4)C3=O)n(C)c2c1
[III] CC(C)C(=O)N1CCC(C[C@@H](c2nc3cc(F)ccc3n2C)N2C(=O)CN(c3ccc(Oc4ccccc4)cc3)C2=O)CC1
[IV] Cc1ccc2nc([C@H](CC3CCN(CC(C)C)CC3)N3C(=O)CN(c4ccc(Oc5ccccc5)cc4)C3=O)n(C)c2c1
Order field: pIC50 | Direction: descending (largest first) Returns: the labels listed in the requested order.
II, III, I, IV
(II: 11.22, III: 10.22, I: 9.70, IV: 4.76)

* * *

biological target: Bile acid receptor (Homo sapiens, UniProt Q96RI1); experiment: Antagonist activity at human FXR expressed in Hep3B cells assessed as inhibition of CDCA-induced FXR response element driven luciferase activity after 24 hrs; type: cell-based
pIC50: −log10 of the molar value.
RESULT TYPE: pIC50

[P] CC(=O)N1CCC(C[C@@H](c2nc3ccccc3n2C)N2C(=O)CN(c3ccc(Oc4ccccc4)cc3)C2=O)CC1
[Q] CC(=O)N1CCC(C[C@@H](c2nc3ccc(Cl)cc3n2C)N2C(=O)CN(c3ccc(Oc4ccccc4)cc3)C2=O)CC1
[R] Cc1ccc2nc([C@H](CC3CCNCC3)N3C(=O)CN(c4ccc(Oc5ccccc5)cc4)C3=O)n(C)c2c1
Output the listed items in decreasing order of pIC50. Returns: the labels listed in the requested order.
P, Q, R

* * *

molecular target: UniProtKB Q96RI1; test: Antagonist activity at GST-tagged FXR LBD (unknown origin) assessed as inhibition of GW4064-induced fluorecein-labeled SRC2-2 coactivator recruitment by Lanthascreen TR-FRET assay
pIC50: −log10 of the molar value.
RESULT TYPE: pIC50

[P] CC(=O)N1CCC(C[C@@H](c2nc3ccc(C)cc3n2C)N2C(=O)CN(c3ccc(Oc4ccccc4)cc3)C2=O)CC1
[Q] Cc1ccc2nc([C@H](CC3CCN(C(=O)C(C)C)CC3)N3C(=O)CN(c4ccc(Oc5ccccc5)cc4)C3=O)n(C)c2c1
[R] CC(=O)N1CCC(C[C@@H](c2nc3ccc(Cl)cc3n2C)N2C(=O)CN(c3ccc(Oc4ccccc4)cc3)C2=O)CC1
[S] Cc1ccc2nc([C@H](CC3CCN(CC(C)C)CC3)N3C(=O)CN(c4ccc(Oc5ccccc5)cc4)C3=O)n(C)c2c1
Sort ascending by pIC50. Returns: the labels listed in the requested order.
S, R, P, Q
(S: 4.79, R: 5.46, P: 5.89, Q: 7.46)

* * *

target: Bile acid receptor (Homo sapiens); experiment: Antagonist activity at GST-tagged FXR LBD (unknown origin) assessed as inhibition of GW4064-induced fluorecein-labeled SRC2-2 coactivator recruitment by Lanthascreen TR-FRET assay
pIC50: −log10 of the molar value.
RESULT TYPE: pIC50

| MOLECULE SMILES | OBS VALUE |
| --- | --- |
| CC(C)C(=O)N1CCC(C[C@@H](c2nc3ccccc3n2C)N2C(=O)CN(c3ccc(Oc4ccccc4)cc3)C2=O)CC1 | 7.42 |
| CC(=O)N1CCC(C[C@@H](c2nc3cc(F)ccc3n2C)N2C(=O)CN(c3ccc(Oc4ccccc4)cc3)C2=O)CC1 | 5.08 |
| CC(C)C(=O)N1CCC(C[C@@H](c2nc3ccc(Cl)cc3n2C)N2C(=O)CN(c3ccc(Oc4ccccc4)cc3)C2=O)CC1 | 6.89 |

[I] CC(C)C(=O)N1CCC(C[C@@H](c2nc3cc(F)ccc3n2C)N2C(=O)CN(c3ccc(Oc4ccccc4)cc3)C2=O)CC1
[II] Cc1ccc2nc([C@H](CC3CCN(C(=O)C4CCCC4)CC3)N3C(=O)CN(c4ccc(Oc5ccccc5)cc4)C3=O)n(C)c2c1
[III] CC(=O)N1CCC(C[C@@H](c2nc3ccccc3n2C)N2C(=O)CN(c3ccc(Oc4ccccc4)cc3)C2=O)CC1
[IV] Cc1ccc2nc([C@H](CC3CCNCC3)N3C(=O)CN(c4ccc(Oc5ccccc5)cc4)C3=O)n(C)c2c1
Order field: pIC50 | Direction: descending (largest first) Returns: the labels listed in the requested order.
II, I, III, IV
